Attribution: patent US20260151494A1

biological target: T1, human CD71 extracellular domain (human, UniProt P02786 89-760); assay: primary ELISA; signal over HSA control
T1 construct: also called hCD71; CD71-ECD
T1 sequence (P02786 89-760): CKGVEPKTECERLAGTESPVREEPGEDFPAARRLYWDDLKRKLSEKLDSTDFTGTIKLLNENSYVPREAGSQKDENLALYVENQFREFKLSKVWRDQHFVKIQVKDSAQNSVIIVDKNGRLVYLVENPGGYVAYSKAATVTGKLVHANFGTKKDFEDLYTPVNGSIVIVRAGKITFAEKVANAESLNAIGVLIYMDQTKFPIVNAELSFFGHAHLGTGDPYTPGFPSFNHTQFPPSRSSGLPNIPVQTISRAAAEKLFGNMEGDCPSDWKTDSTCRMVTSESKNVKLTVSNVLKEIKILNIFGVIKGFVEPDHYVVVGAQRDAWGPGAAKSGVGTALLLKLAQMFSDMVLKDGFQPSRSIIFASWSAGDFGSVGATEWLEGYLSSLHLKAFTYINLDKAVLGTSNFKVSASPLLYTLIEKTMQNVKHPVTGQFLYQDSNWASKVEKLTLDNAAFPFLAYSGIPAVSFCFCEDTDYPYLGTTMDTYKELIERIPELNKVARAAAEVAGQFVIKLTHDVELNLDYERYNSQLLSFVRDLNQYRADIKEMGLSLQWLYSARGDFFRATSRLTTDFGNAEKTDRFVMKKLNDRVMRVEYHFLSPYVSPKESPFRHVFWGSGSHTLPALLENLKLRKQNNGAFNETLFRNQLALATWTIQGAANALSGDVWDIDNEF
Please respond with reported hCD71:HSA for every item in the list.
Answers are plain numbers, in ratio.

Check out these entries, answers already filled in.
binder	propertyMeasured	endpointResult
CD71-binding FN3 domain SEQ ID NO 368 (designed binder) MLPAPKNLVVSRVTEDSARLSWTAPDAAFDSFFIGYLEPQPPGEAITLTVPGSERSYDLTGLKPGTEYNVTIQGVKGGFPSGPLIASFTT	hCD71:HSA	218
CD71-binding FN3 domain SEQ ID NO 414 (designed binder) MLPAPKNLVVSRVTEDSARLSWTAPDAAFDSFFIGYLEPQPPGEAIHLYVPGSERSYDLTGLKPGTEYNVTIQGVKGGFPSHPLIANFTT	hCD71:HSA	86
CD71-binding FN3 domain SEQ ID NO 375 (designed binder) MLPAPKNLVVSRVTEDSARLSWTAPDAAFDSFFIGYLEPQPPGEAIDLTVPGSERSYDLTGLKPGTEYNVTIQGVKGGFPSMPLSAIFTT	hCD71:HSA	187

We now examine a further binder.
# hCD71:HSA (binder: CD71-binding FN3 domain SEQ ID NO 394 (designed binder) MLPAPKNLVVSRVTEDSARLSWTAPDAAFDSFFIGYLEPQPPGEAIYLLVPGSERSYDLTGLKPGTEYNVTIQGVKGGFPSTPLEASFTT ) is 218
